Each entry below carries its recorded Cmax.
- measurement-protocol: Pharmacokinetic experiment on SD rats (iv and ig)
- Format: in vivo
- particulars: Sprague-Dawley, rat, plasma, iv, 1.00 mg/kg, read-out: Peak plasma concentration Cmax
recorded-metric: Cmax

{"molecule": "Cc1nn(C2CCC(=O)NC2=O)c2cccc(N3CCN(C[C@H]4CC[C@H](n5cc6cc(NC(=O)c7cnn8cccnc78)c(N7CCOCC7)cc6n5)CC4)CC3)c12 (some centres unmarked)", "recorded-value": "530 ng/mL"}
{"molecule": "Cc1nn(C2CCC(=O)NC2=O)c2cccc(N3CC4CN(C[C@H]5CC[C@H](n6cc7cc(NC(=O)c8cnn9cccnc89)c(N8CCOCC8)cc7n6)CC5)CC4C3)c12 (some centres unmarked)", "recorded-value": "225 ng/mL"}
{"molecule": "Cc1nn(C2CCC(=O)NC2=O)c2cccc(N3CCC4(CC3)CN(C[C@H]3CC[C@H](n5cc6cc(NC(=O)c7cnn8cccnc78)c(N(C)C)cc6n5)CC3)C4)c12 (some centres unmarked)", "recorded-value": "151 ng/mL"}
{"molecule": "Cc1nn(C2CCC(=O)NC2=O)c2cncc(N3CCN(C[C@H]4CC[C@H](n5cc6cc(NC(=O)c7cnn8cccnc78)c(N7CCO[C@H](C)C7)cc6n5)CC4)CC3)c12 (some centres unmarked)", "recorded-value": "101 ng/mL"}
{"molecule": "Cc1nn(C2CCC(=O)NC2=O)c2cccc(OC3CCN(C[C@H]4CC[C@H](n5cc6cc(NC(=O)c7cnn8cccnc78)c(N7CCOCC7)cc6n5)CC4)CC3)c12 (some centres unmarked)", "recorded-value": "477 ng/mL"}

---

- measurement-protocol: Pharmacokinetic experiment on SD rats (iv and ig)
- Format: in vivo
- particulars: Sprague-Dawley, rat, plasma, po, ig, 5.00 mg/kg, read-out: Peak plasma concentration Cmax
Each entry below carries its recorded Cmax.

{"molecule": "Cc1nn(C2CCC(=O)NC2=O)c2cncc(N3CCN(C[C@H]4CC[C@H](n5cc6cc(NC(=O)c7cnn8cccnc78)c(N7CCO[C@H](C)C7)cc6n5)CC4)CC3)c12 (some centres unmarked) [TM-109]", "unit-symbol": "ng/mL", "Cmax": 23}
{"molecule": "Cc1nn(C2CCC(=O)NC2=O)c2cccc(N3CCC4(CC3)CN(C[C@H]3CC[C@H](n5cc6cc(NC(=O)c7cnn8cccnc78)c(N(C)C)cc6n5)CC3)C4)c12 (some centres unmarked) [TM-101]", "unit-symbol": "ng/mL", "Cmax": 23}
{"molecule": "Cc1nn(C2CCC(=O)NC2=O)c2cccc(N3CCN(C[C@H]4CC[C@H](n5cc6cc(NC(=O)c7cnn8cccnc78)c(N7CCOCC7)cc6n5)CC4)CC3)c12 (some centres unmarked) [TM-33]", "unit-symbol": "ng/mL", "Cmax": 1100}
{"molecule": "Cc1nn(C2CCC(=O)NC2=O)c2cccc(N3CC4CN(C[C@H]5CC[C@H](n6cc7cc(NC(=O)c8cnn9cccnc89)c(N8CCOCC8)cc7n6)CC5)CC4C3)c12 (some centres unmarked) [TM-57]", "unit-symbol": "ng/mL", "Cmax": 79.7}
{"molecule": "Cc1nn(C2CCC(=O)NC2=O)c2cccc(OC3CCN(C[C@H]4CC[C@H](n5cc6cc(NC(=O)c7cnn8cccnc78)c(N7CCOCC7)cc6n5)CC4)CC3)c12 (some centres unmarked) [TM-56]", "unit-symbol": "ng/mL", "Cmax": 96}

---

Each entry below carries its recorded DC50.
- assayed-system: IRAK4 protein (Homo sapiens)
- Construct: Effects of Compounds on IRAK4 Protein Degradation in THP1 Cells; endogenous in cells; host or cells: THP-1 cells
- Sequence (Q9NWZ3 whole entry): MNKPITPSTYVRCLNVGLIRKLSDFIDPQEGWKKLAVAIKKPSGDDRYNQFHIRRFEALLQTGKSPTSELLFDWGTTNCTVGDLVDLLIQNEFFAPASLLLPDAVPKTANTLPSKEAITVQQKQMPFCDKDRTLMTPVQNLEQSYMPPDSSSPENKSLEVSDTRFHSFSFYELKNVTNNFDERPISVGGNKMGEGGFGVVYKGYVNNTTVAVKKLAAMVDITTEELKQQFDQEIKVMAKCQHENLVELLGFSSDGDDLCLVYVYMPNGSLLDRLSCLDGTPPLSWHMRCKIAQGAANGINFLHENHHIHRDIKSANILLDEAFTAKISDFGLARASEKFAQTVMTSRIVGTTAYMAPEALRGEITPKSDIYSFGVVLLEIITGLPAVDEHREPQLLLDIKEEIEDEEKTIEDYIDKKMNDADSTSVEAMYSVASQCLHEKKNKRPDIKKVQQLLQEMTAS
- measurement-protocol: IRAK4 protein degradation in THP1 cells (Western blot)
- Type: cell-based
- particulars: 24 h

{"compound": "Cc1nn(C2CCC(=O)NC2=O)c2cccc(N3CC4CN(C[C@H]5CC[C@H](n6cc7cc(NC(=O)c8cnn9cccnc89)c(N8CCOCC8)cc7n6)CC5)CC4C3)c12 (stereo partly drawn)", "DC50, pM": 3120}
{"compound": "Cc1nn(C2CCC(=O)NC2=O)c2cccc(N3CC4CN(C[C@H]5CC[C@H](n6cc7cc(NC(=O)c8cnn9cccnc89)c(N(C)C)cc7n6)CC5)CC4C3)c12 (stereo partly drawn)", "DC50, pM": 900}
{"compound": "Cc1nn(C2CCC(=O)NC2=O)c2ccnc(N3CCC4(CC3)CN(C[C@H]3CC[C@H](n5cc6cc(NC(=O)c7cnn8cccnc78)c(N(C)C)cc6n5)CC3)C4)c12 (stereo partly drawn)", "DC50, pM": 1060}
{"compound": "Cc1nn(C2CCC(=O)NC2=O)c2cccc(N3CCC(CN4CCC(N5Cc6cc(NC(=O)c7cnn8cccnc78)c(N(C)C)cc6C5=O)CC4)CC3)c12 (stereo not drawn)", "DC50, pM": 570}
{"compound": "Cc1nn(C2CCC(=O)NC2=O)c2cncc(N3CCC(CN4CCC(n5cc6cc(NC(=O)c7cnn8cccnc78)c(N(C)C)cc6n5)CC4)CC3)c12 (stereo not drawn)", "DC50, pM": 44}
{"compound": "Cc1nn(C2CCC(=O)NC2=O)c2cccc(N3CCCN(C[C@H]4CC[C@H](n5cc6cc(NC(=O)c7cnn8cccnc78)c(N(C)C)cc6n5)CC4)CC3)c12 (stereo partly drawn)", "DC50, pM": 580}

---

- measurement-protocol: Pharmacokinetic experiment on SD rats (iv and ig)
- Assay type: in vivo
- particulars: Sprague-Dawley, rat, plasma, po, ig, 5.00 mg/kg
Label Not fulfilled if AUC(0-inf) falls below 1000 ng·h/mL; label Fulfilled in every other case.

{"compound": "Cc1nn(C2CCC(=O)NC2=O)c2cncc(N3CCN(C[C@H]4CC[C@H](n5cc6cc(NC(=O)c7cnn8cccnc78)c(N7CCO[C@H](C)C7)cc6n5)CC4)CC3)c12 (some centres unmarked) [TM-109]", "group": "Not fulfilled"}
{"compound": "Cc1nn(C2CCC(=O)NC2=O)c2cccc(N3CC4CN(C[C@H]5CC[C@H](n6cc7cc(NC(=O)c8cnn9cccnc89)c(N8CCOCC8)cc7n6)CC5)CC4C3)c12 (some centres unmarked) [TM-57]", "group": "Fulfilled"}
{"compound": "Cc1nn(C2CCC(=O)NC2=O)c2cccc(OC3CCN(C[C@H]4CC[C@H](n5cc6cc(NC(=O)c7cnn8cccnc78)c(N7CCOCC7)cc6n5)CC4)CC3)c12 (some centres unmarked) [TM-56]", "group": "Fulfilled"}
{"compound": "Cc1nn(C2CCC(=O)NC2=O)c2cccc(N3CCN(C[C@H]4CC[C@H](n5cc6cc(NC(=O)c7cnn8cccnc78)c(N7CCOCC7)cc6n5)CC4)CC3)c12 (some centres unmarked) [TM-33]", "group": "Fulfilled"}
{"compound": "Cc1nn(C2CCC(=O)NC2=O)c2cccc(N3CCC4(CC3)CN(C[C@H]3CC[C@H](n5cc6cc(NC(=O)c7cnn8cccnc78)c(N(C)C)cc6n5)CC3)C4)c12 (some centres unmarked) [TM-101]", "group": "Not fulfilled"}

---

- measurement-protocol: Pharmacokinetic experiment on SD rats (iv and ig)
- Type: in vivo
- particulars: Sprague-Dawley, rat, plasma, po, ig, 5.00 mg/kg
recorded-metric: log10 of AUC (log10 of the value in ng·h/mL)

{"compound": "Cc1nn(C2CCC(=O)NC2=O)c2cccc(N3CCN(C[C@H]4CC[C@H](n5cc6cc(NC(=O)c7cnn8cccnc78)c(N7CCOCC7)cc6n5)CC4)CC3)c12 (some centres unmarked)", "recorded-value": 4.14}
{"compound": "Cc1nn(C2CCC(=O)NC2=O)c2cncc(N3CCN(C[C@H]4CC[C@H](n5cc6cc(NC(=O)c7cnn8cccnc78)c(N7CCO[C@H](C)C7)cc6n5)CC4)CC3)c12 (some centres unmarked)", "recorded-value": 2.43}
{"compound": "Cc1nn(C2CCC(=O)NC2=O)c2cccc(OC3CCN(C[C@H]4CC[C@H](n5cc6cc(NC(=O)c7cnn8cccnc78)c(N7CCOCC7)cc6n5)CC4)CC3)c12 (some centres unmarked)", "recorded-value": 3.03}
{"compound": "Cc1nn(C2CCC(=O)NC2=O)c2cccc(N3CCC4(CC3)CN(C[C@H]3CC[C@H](n5cc6cc(NC(=O)c7cnn8cccnc78)c(N(C)C)cc6n5)CC3)C4)c12 (some centres unmarked)", "recorded-value": 2.57}
{"compound": "Cc1nn(C2CCC(=O)NC2=O)c2cccc(N3CC4CN(C[C@H]5CC[C@H](n6cc7cc(NC(=O)c8cnn9cccnc89)c(N8CCOCC8)cc7n6)CC5)CC4C3)c12 (some centres unmarked)", "recorded-value": 2.76}
